This collection of values is drawn from patent US20200399712A1.

tested on: HPV-16; assay: qPCR sensitivity against HPV-HNSCC tumor samples diluted among 10 ng normal human DNA; details: Sample # 9
MEASURE: Threshold of tumor cell numbers for HPV-16 detection (tumor cells)
One number for each entry, in tumor cells.

MOLECULE	REPORTED MEASUREMENT
HR E5L2-4: primer/probe set for junction between E5 and L2, SEQ ID NO: 55-57 (same as SEQ ID NO: 4-6) (nucleic acid, chemistry not given here) DNA 1: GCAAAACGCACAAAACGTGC DNA 2: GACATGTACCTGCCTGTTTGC DNA 3: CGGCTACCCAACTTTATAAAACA	30.0

Continue with the next molecule.
Given BR E1-4: HPV-16 E1 region primer/probe set, SEQ ID NO: 37-39 (nucleic acid, chemistry not given here) DNA 1: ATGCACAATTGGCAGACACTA DNA 2: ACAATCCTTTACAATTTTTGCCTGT DNA 3: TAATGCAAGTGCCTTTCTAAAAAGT , state its recorded Threshold of tumor cell numbers for HPV-16 detection.
1.2
